Sourced from PubChem BioAssay (EPA / NIEHS)

Read-out: Interleukin 6 (IL6), IL6 (gene 3569)
Experiment: LTEA_HepaRG_IL6: Life Technologies and Expression Analysis (LTEA) Assay for Interleukin 6 (IL6) using HepaRG (AID 2283509)
Settings: mRNA level, 48 h; actives raise or lower the signal
Method: LTEA_HepaRG is a cell based, multiplexed-readout assay that uses HepaRG, a human liver cell line, with measurements taken at 48 hours after chemical dosing on a 96-well plate.LTEA_HepaRG_IL6 is one of 102 assay component(s) measured in the LTEA HepaRG cell culture assay. It is a marker of Inflammation.Data from the assay component LTEA_HepaRG_IL6 was analyzed into 1 endpoint. […]
Active and inactive are the calls of the source. How the source made its calls: active means hit-call score of the fitted dose curve at least 0.9, where 1 is the maximum; inactive means score below 0.9.
Your response should consist of one outcome taken from t for active, f for inactive

Ask | Per the assay record, what outcome was assigned to COc1cc(OC)nc(NC(=O)NS(=O)(=O)c2ncccc2OCC(F)(F)F)n1 ?
Reply | f

Ask | Another molecule: CC1(C)C(C=C(Cl)Cl)C1C(=O)OC(C#N)c1cccc(Oc2ccccc2)c1 (stereo not given)
Reply | f

Ask | Another molecule: CCN(CC)C(=O)C(C)Oc1cccc2ccccc12 (stereo not given)
Reply | f

Ask | Another molecule: CSC(=O)c1c(C(F)F)nc(C(F)(F)F)c(C(=O)SC)c1CC(C)C
Reply | f

Ask | Another molecule: CCCN(CC)CC1COC2(CCC(C(C)(C)C)CC2)O1 (stereo not given)
Reply | f

Ask | Another molecule: CC1(C)C(C(=O)OC(C#N)c2cccc(Oc3ccccc3)c2)C1(C)C (stereo not given)
Reply | f

Ask | Another molecule: CCOP(=S)(OCC)Oc1nc(Cl)n(C(C)C)n1
Reply | f

Ask | Another molecule: Clc1cccc(C(Cl)(Cl)Cl)n1
Reply | f

Ask | Another molecule: CCNC(=O)NC(=O)C(C#N)=NOC
Reply | f

Ask | Another molecule: N#Cc1c(Cl)cccc1Cl
Reply | f

Ask | Another molecule: N#Cc1c[nH]cc1-c1cccc2c1OC(F)(F)O2
Reply | f

Ask | Another molecule: CCOC(=O)C(C)OC(=O)c1cc(Oc2ccc(C(F)(F)F)cc2Cl)ccc1[N+](=O)[O-] (stereo not given)
Reply | t

Ask | Another molecule: CS(=O)(=O)c1ccc(C(=O)C2C(=O)CCCC2=O)c([N+](=O)[O-])c1
Reply | f

Ask | Another molecule: CCSC(=O)N1CCCCCC1
Reply | f

Ask | Another molecule: C=C(C)CN(CC)c1c([N+](=O)[O-])cc(C(F)(F)F)cc1[N+](=O)[O-]
Reply | f

Ask | Another molecule: CC(C)NC(=O)N1CC(=O)N(c2cc(Cl)cc(Cl)c2)C1=O
Reply | f

Ask | Another molecule: Cc1nc(N(C)C)nc(OC(=O)N(C)C)c1C
Reply | f

Ask | Another molecule: COC(=O)N(C(=O)N1CO[C@@]2(C(=O)OC)Cc3cc(Cl)ccc3C2=N1)c1ccc(OC(F)(F)F)cc1
Reply | f

Ask | Another molecule: Cn1c(-c2ccccc2)cc(-c2ccccc2)[n+]1C
Reply | f

Ask | Another molecule: CCNP(=S)(OC)O/C(C)=C/C(=O)OC(C)C (stereo not given)
Reply | f

Ask | Another molecule: Nc1c(Cl)c(F)nc(OCC(=O)O)c1Cl
Reply | f

Ask | Another molecule: CCCCOCN(C(=O)CCl)c1c(CC)cccc1CC
Reply | f

Ask | Another molecule: O=P(O)(O)CCCl
Reply | f

Ask | Another molecule: COC(=O)NC(=S)Nc1ccccc1NC(=S)NC(=O)OC
Reply | f

Ask | Another molecule: COC(=O)NS(=O)(=O)c1ccc(N)cc1
Reply | f
